All figures here come from PubChem BioAssay (NCI).

# Test system: U251 CNS
Permitted responses: active, inactive

>>> print(df.to_string())
                                   compound  assigned_class
0             CCCN(CCC)CCCNCc1cc(I)cc(C)c1O        inactive
1        Cc1nc2sccn2c1/C=C1/C(=O)Nc2ccccc21        inactive
2  COc1cc(/C(Cl)=C/C=C/C(=O)c2c(C)[n+]([O-])c3ccc(Cl)cc3[n+]2[O-])cc(OC)c1OC        inactive
3  Cc1ccc(C(=O)N(CCCN)[C@@H](c2nc3cc(Cl)ccc3c(=O)n2Cc2ccccc2)C(C)C)cc1          active
4  COc1ccc2c(c1)C(=O)c1c-2n(CCCN)c(=O)c2ccccc12          active

What was the test verdict on O=[N+]([O-])c1ccc(Nc2ccccc2-c2ccccc2)c2nonc12 ?
inactive

Query c1ccc(C2=NOC3(c4ccccc4)CC(c4cccs4)Sc4ccccc4N23)cc1 (centres undefined) next
inactive

Now consider CCC[CH2][Sn]([CH2]CCC)([O]C(=O)c1c(F)cccc1F)[O]C(=O)c1c(F)cccc1F .
inactive

Then COC1=CC(c2ccc[nH]2)=N/C1=C\c1[nH]c(C)c(C(=O)OCc2ccccc2)c1C ?
active

====

# Test system: HCT-15 colon
# test: NCI tumour cell line growth inhibition, 48 h
Give measured TGI for each item. Keep answers brief.

                                   molecule  parameter_measured     result
0  OCC1OC(c2scc3c(=S)nc[nH]c23)C(O)C1O (stereo not drawn)                 TGI  > 95.6 µM
1  CN(C)CCCOc1ccccc1NC1=C(Cl)C(=O)C(Nc2ccccc2OCCCN(C)C)=C(Cl)C1=O                 TGI    2.18 µM

Field request: TGI | item: CC(C)(C)OC(=O)CN1CCNCCNCC1
> 100 µM

====

Kindly supply the reported TGI values for the records listed here.
# Tested on: CCRF-CEM leukemia
# test: NCI tumour cell line growth inhibition, 48 h

Solved cases below.
compound	TGI
c1ccc(SC2(Sc3ccccc3)CCCC2)cc1	> 100 µM
CC1=NN(C(=O)CSc2nnc(SCC(=O)N3N=C(C)CC3(O)c3ccccc3)s2)C(O)(c2ccccc2)C1 (stereo unspecified)	> 100 µM
OCC1OC(c2scc3c(=S)nc[nH]c23)C(O)C1O (stereo unspecified)	> 100 µM
COC(=O)Cc1cc(OC)c(OC)cc1Br	> 100 µM
O=S(=O)(Oc1ccc2oc3ccccc3c2c1-c1c(OS(=O)(=O)C(F)(F)F)ccc2oc3ccccc3c12)C(F)(F)F	> 100 µM

// for each compound below, give its TGI
1. CCCC(=O)O
2. C[n+]1c(/C=C\C=C\N2CCCCC2)sc2ccccc21
3. O=P([O-])(O)OP(=O)([O-])O.[NH-][C@H]1CCCC[C@@H]1[NH-].[OH-].[OH-].[Pt+4]
4. FC(F)(F)c1ccc(-c2nc(-c3nc4cc(Cl)c(Cl)cc4[nH]3)c3ccccn23)cc1
5. N#Cc1cccc(N2C(=O)c3c(c(-c4ccccc4)c(-c4ccc(Sc5ccc(-c6c(-c7ccccc7)c7c(c(-c8ccccc8)c6-c6ccccc6)C(=O)N(c6cccc(C#N)c6)C7=O)cc5)cc4)c(-c4ccccc4)c3-c3ccccc3)C2=O)c1
6. C1OCC2S[C@@H]3COCO[C@@H]3C2O1 (stereo partly specified)

1. > 18700 µM
2. > 40.5 µM
3. > 100 µM
4. > 100 µM
5. > 100 µM
6. > 100 µM
